Origin of values: patent EP3498266A1

Test: Solubility of copanlisib dihydrochloride, flask method, HPLC
Format: physicochemical
Settings: 25 °C, aqueous buffer, thermodynamic from solid; Buffer (citrate) pH 3
property: solubility at 19 h (mg/mL)

{"compound": "COc1c(OCCCN2CCOCC2)ccc2c1N=C(NC(=O)c1cnc(N)nc1)N1CCN=C21.Cl.Cl [copanlisib dihydrochloride]", "unit label": "mg/mL", "recorded measurement": 250}

* * *

Assay: Solubility of copanlisib dihydrochloride, flask method, HPLC
Format: physicochemical
Details: 25 °C, aqueous buffer, thermodynamic from solid; Buffer (phosphate) pH 1

{"compound": "COc1c(OCCCN2CCOCC2)ccc2c1N=C(NC(=O)c1cnc(N)nc1)N1CCN=C21.Cl.Cl [copanlisib dihydrochloride]", "solubility at 19 h [mg/mL]": 510}
